Reported self-cleavage values are given for each entry in this list.
B1: Twister Ribozyme (parent)
chain: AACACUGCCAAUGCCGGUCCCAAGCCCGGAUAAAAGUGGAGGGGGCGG

Variants of: B1
assay overview: self-cleavage, relative activity (ratio to wild type); higher = more cleavage; co-transcriptional
measurement kind: self-cleavage

>>> reported_measurement("AACACUGCCAAUGACGGUCACAAGCCCGGAUAAAAGUGGAGGGGGCGG")
0.165
>>> reported_measurement("AACACUACCAAUGCAGGUCCCAAGCCCGGAUAAAAGUGGAGGGGGCGG")
0.111
>>> reported_measurement("AACACAUCCAAUGCCGGUCCCAAGCCCGGAUAAAAGUGGAGGGGGCGG")
0.101
>>> reported_measurement("AACACUGCCAAUGCCGGUCCCAAGCCCGGAUAUAAGUGUAGGGGGCGG")
0.162
>>> reported_measurement("AACACUGCCAAUGCCGGUCCCAAGCCCGGAUAAAAGUGCACGGGGCGG")
0.112
>>> reported_measurement("AAAACUGCCAAUGCCGGUCCCAAGACCGGAUAAAAGUGGAGGGGGCGG")
0.0581
>>> reported_measurement("AACACUUCCAAUGCCGGCCCCAAGCCCGGAUAAAAGUGGAGGGGGCGG")
0.0819
>>> reported_measurement("AACACUGCUAAUGCCGGUCCCAAGCCCGGAUAAAAGGGGAGGGGGCGG")
0.419
>>> reported_measurement("AACACUGCCAAUGCCGGUCCCAACCCCGGAUAAAACUGGAGGGGGCGG")
0.0888
>>> reported_measurement("AACACUGCCAAUGCCGGUCCCAAGCCCGGAUAAUAGUGGAGGGGACGG")
0.815
>>> reported_measurement("AACACUGCCAAUGCCGGUCCCAAGCCCGUAUAAAGGUGGAGGGGGCGG")
0.786
>>> reported_measurement("AACACUGCCAAUGCCGGUUCCAAGCCCGGAUAAUAGUGGAGGGGGCGG")
0.56
>>> reported_measurement("AAUACUGCUAAUGCCGGUCCCAAGCCCGGAUAAAAGUGGAGGGGGCGG")
0.253
>>> reported_measurement("AACACUGCCAAUGCCGGUCCCAAGCCCCGAUAAAAGUGGAGGGGCCGG")
0.155
>>> reported_measurement("AACACUGCCAAUGCCGGUCCUAAGCCAGGAUAAAAGUGGAGGGGGCGG")
0.0634
>>> reported_measurement("AACACUGCCAAUGCCGGUCACAAGCCCGGAUAAAAGUGGAUGGGGCGG")
0.0817
>>> reported_measurement("AACACUGCCAAUGCCGGUCCCAAGCCCGGGUAAAAGUGGAGGGGGGGG")
0.964
>>> reported_measurement("AACACUGCCAAUGCCGGUCCCAAGCCCGGAUAAAAGUCGAGCGGGCGG")
0.238
>>> reported_measurement("AACACUGCCAAUGCCGGUCCCAAGCCCGGAUAAAAGCGGAGGGGGCGA")
0.639
>>> reported_measurement("ACCACUGCCAAUGCCGGUCCCAAGCCCGGAUAAGAGUGGAGGGGGCGG")
0.0505
>>> reported_measurement("UACACUGCCAAUGCCGGUCCCAAGCCCGAAUAAAAGUGGAGGGGGCGG")
0.0545
>>> reported_measurement("AGCACUGCCAAUGCCGGUUCCAAGCCCGGAUAAAAGUGGAGGGGGCGG")
0.155
>>> reported_measurement("AACACUGCCAAUGCCGGUCCGAAGCCCGGACAAAAGUGGAGGGGGCGG")
0.0753
>>> reported_measurement("AACACUGCCAAUGCCGGUCCGAAGCCCGGAUAAUAGUGGAGGGGGCGG")
0.0291
>>> reported_measurement("AACACUGCCAAUGCCGGUCCCAAGCUAGGAUAAAAGUGGAGGGGGCGG")
0.102
>>> reported_measurement("AACACUGCCAAUGCCGGUCCCAAGCCCGGAUAAAAGUAGAGGGGGGGG")
0.966
>>> reported_measurement("AACACUGCCAAAGCCGGUCCCAAGCCCGGAUAAAAGUGGAGGGGGUGG")
0.977
>>> reported_measurement("AACACUGCCAAUCCCGGUCCCAAGCCCGGAUAAAAGUGGUGGGGGCGG")
0.109
>>> reported_measurement("AGCACUGCCAAAGCCGGUCCCAAGCCCGGAUAAAAGUGGAGGGGGCGG")
0.367
>>> reported_measurement("AACACUGCCAAUGCCAGUCCCAAGCCCGGAUAAAAGUGGCGGGGGCGG")
0.122
>>> reported_measurement("AACACUGCCAAUGCCGGUCCCAAGCCUGGAUAAACGUGGAGGGGGCGG")
0.641
>>> reported_measurement("AACACUGCCAAUGACGGUCCCAAGCCCGGAUAAAAGUGGAGGGAGCGG")
0.838
>>> reported_measurement("AACACUGCCAAUGCCACUCCCAAGCCCGGAUAAAAGUGGAGGGGGCGG")
0.139
>>> reported_measurement("AACACUGCCAAUGCCGGUCCCAAGCCCGGAGAAAAUUGGAGGGGGCGG")
0.374
>>> reported_measurement("AACAGUGCCAAUGCCGGUCCCAAGCCCGGAUAAAAGUGGAGGGCGCGG")
0.678
>>> reported_measurement("AACACUGCCAAUGCCGGUCCCAAGCCCGGAUAAAAGUAGAGGGGGAGG")
0.875
>>> reported_measurement("AACACUGCUAACGCCGGUCCCAAGCCCGGAUAAAAGUGGAGGGGGCGG")
0.501
>>> reported_measurement("AAAACUGCCAAUGCCGGCCCCAAGCCCGGAUAAAAGUGGAGGGGGCGG")
0.0738
>>> reported_measurement("AACACUGCCAAUGCCGGACCCAAGCCCGGAUAAAAGUGGAGGGCGCGG")
0.448
>>> reported_measurement("AACACUGCCGAUGCCGGUCCCAAGCCCGGAGAAAAGUGGAGGGGGCGG")
0.994
>>> reported_measurement("AACACUGCCAAUCCCGGUCCCAAGCCCGGAUAAAAGUCGAGGGGGCGG")
0.32
>>> reported_measurement("AACACUGCGAAAGCCGGUCCCAAGCCCGGAUAAAAGUGGAGGGGGCGG")
0.968
>>> reported_measurement("AACACUGCCCAUGCCGGUCCCAAGCCCGGAUAAAAGUGGAGGGGGAGG")
0.898
>>> reported_measurement("AACUCUGCCAAUGCCGGUCCCAAGCCCGGAUGAAAGUGGAGGGGGCGG")
0.0833
>>> reported_measurement("AACACUGCCAAUGCUGCUCCCAAGCCCGGAUAAAAGUGGAGGGGGCGG")
0.0992
>>> reported_measurement("AGCACUGCCAAUGCCGGUCCCAAGCCCAGAUAAAAGUGGAGGGGGCGG")
0.269
